Molecular target: human ACC1 (acetyl-coenzyme A carboxylase alpha transcript variant 1) (Homo sapiens, UniProt Q13085)
Construct: FLAG (C); made in house; host or cells: baculovirus-infected insect cells (Hi5)
Assay: Human ACC1 enzyme assay, Assay B1 (ADP-Glo)
Assay type: biochemical
List of IC50 values.

Compound | IC50
CCOC1CCC2(CC1)NC(=O)C(c1c(C)cc(C)c(-c3ccc(Cl)cc3)c1C)=C2O (stereo not drawn) | 5680 nM

Documented IC50 of Cc1ccc(-c2ccc(F)cc2)c(C)c1C1=C(O)C2(CCC(OCC(F)(F)F)CC2)NC1=O (stereo not drawn) : 811 nM

For COCCC1CCC2(CC1)NC(=O)C(c1c(C)ccc(-c3ccc(Cl)cc3)c1C)=C2O (stereo not drawn) the compound record lists IC50 as 1290 nM

----------
Target: human ACC1 (acetyl-coenzyme A carboxylase alpha transcript variant 1) (Homo sapiens, UniProt Q13085)
Construct: FLAG (C); made in house; host or cells: baculovirus-infected insect cells (Hi5)
Assay: Human ACC1 enzyme assay, Assay B1 (ADP-Glo)
Assay type: biochemical
Outcome Measure: IC50 (nM)
Kindly answer with a numeric value in nM, unit omitted.

The following compounds have reported results that may help.
Compound | IC50 / nM
COCC1CCCC2(C1)NC(=O)C(c1cc(-c3ccc(Cl)cc3)ccc1C)=C2O (stereo not shown) | 415
CO[C@H]1CC[C@]2(CC1)NC(=O)C(c1cc(-c3ccc(F)c(F)c3)ccc1C)=C2O | 233
Cc1ccc(-c2cc(F)c(F)c(F)c2)cc1C1=C(O)C2(CCOCC2)NC1=O | 1500
CO[C@H]1CC[C@]2(CC1)NC(=O)C(c1cc(-c3ccc(Cl)c(F)c3)cc(F)c1C)=C2O | 165
COCC1(C)NC(=O)C(c2cc(-c3ccc(Cl)cc3)ccc2C)=C1O (stereo not shown) | 1130
Cc1cc(C)c(-c2ccc(Cl)cc2)cc1C1=C(O)C2(CCCCCC2)OC1=O | 168
Cc1ccc(-c2ccc(Cl)cc2)cc1C1=C(O)C2(CCC3(CC2)OCCO3)NC1=O | 189
Cc1ccc(-c2ccc(Cl)cc2)cc1C1=C(O)C2(CCOCC2)OC1=O | 1050
COCC1CCC2(CC1)NC(=O)C(c1c(C)ccc(-c3ccc(Cl)cc3)c1C)=C2O (stereo not shown) | 243

For the next question, use this compound.
The recorded IC50 for entry "O=C1N[C@]2(CC[C@@H](OCC(F)(F)F)CC2)C(O)=C1c1cc(-c2ccc(Cl)cc2)ccc1Cl" equals 153
